experiment: in vivo; settings: rat, iv
Each entry gets NOT MET if its selectivity ratio stays under 9, and MET if its selectivity ratio is 9 or above.

c1ccc2c(CCCC3CCNCC3)ccnc2c1 [Example 4, 4-[3-(4-quinolyl)propyl]piperidine]    NOT MET
CC(C)N(CCC(C(N)=O)(c1ccccc1)c1ccccn1)C(C)C (stereo not drawn) [Disopyramide, reference compound]    NOT MET
CC[C@H]1CNCC[C@H]1CCCc1ccnc2ccc(OC)cc12    MET
C=C[C@H]1CNCC[C@H]1CCCc1ccnc2ccccc12    NOT MET
C=C[C@H]1C[N@@]2CC[C@H]1C[C@@H]2[C@@H](O)c1ccnc2ccc(OC)cc12 [Quinidine, reference compound]    MET

# evaluate next
(Q) # check: selectivity ratio of CC[C@H]1CNCC[C@H]1CCCc1ccnc2ccccc12 is greater than or equal to 9
(A) MET

Where these numbers come from: patent US4237139A
